- System: Hepatitis C virus
- assay.comment: Ratio of EC50 for Hepatitis C virus subtype 1b expressing NS3 D168T mutant to EC50 for Hepatitis C virus subtype 1b expressing WT NS3 infected in HuH7 cells after 48 hrs by luciferase reporter assay
- Format: functional, Hepacivirus hominis, genotype 1b, Huh-7

[
  {
    "molecule": "COc1ccc2c(O[C@@H]3C[C@H]4C(=O)N[C@]5(C(=O)O)C[C@H]5/C=C\\CCCCC[C@H](NC(=O)OC5CCCC5)C(=O)N4C3)cc(-c3csc(NC(C)C)n3)nc2c1 [CILUPREVIR]",
    "Ratio EC50": 844
  },
  {
    "molecule": "CCC[C@H](NC(=O)[C@@H]1[C@H]2CCC[C@H]2CN1C(=O)[C@@H](NC(=O)[C@@H](NC(=O)c1cnccn1)C1CCCCC1)C(C)(C)C)C(=O)C(=O)NC1CC1 [TELAPREVIR]",
    "Ratio EC50": 1
  },
  {
    "molecule": "CC(C)(C)NC(=O)N[C@H](C(=O)N1C[C@H]2[C@@H]([C@H]1C(=O)NC(CC1CCC1)C(=O)C(N)=O)C2(C)C)C(C)(C)C (some centres undefined) [BOCEPREVIR]",
    "Ratio EC50": 1.1
  },
  {
    "molecule": "COc1ccc2c(O[C@@H]3C[C@H]4C(=O)N[C@]5(C(=O)NS(=O)(=O)C6CC6)C[C@H]5/C=C\\CCCCN(C)C(=O)[C@@H]4C3)cc(-c3nc(C(C)C)cs3)nc2c1C [SIMEPREVIR]",
    "Ratio EC50": 308
  }
]
